# System: LC-2-ad
# assay: relative viability (nuclei count vs DMSO), 5 days (fraction); higher = more cells survive
# condition-set: first compound 20 µM
Listing of recorded relative viability by entry.

compound	relative viability
COCC1(CO)C(=O)C2CCN1CC2 (stereo not given) [PRIMA-1MET] + NC(=O)Nc1cc(-c2cccc(F)c2)sc1C(=O)N[C@H]1CCCNC1 [AZD7762] (partner 0.2 µM)	0.791
COCC1(CO)C(=O)C2CCN1CC2 (stereo not given) [PRIMA-1MET] + CC(C)C[C@H](NC(=O)[C@H](Cc1ccccc1)NC(=O)c1cnccn1)B(O)O [Bortezomib] (partner 0.002 µM)	0.91
COCC1(CO)C(=O)C2CCN1CC2 (stereo not given) [PRIMA-1MET] + C[C@]1(O)C[C@@H](c2nc(-c3ccc4ccc(-c5ccccc5)nc4c3)c3c(N)nccn32)C1 [Linsitinib] (partner 1 µM)	0.598
COCC1(CO)C(=O)C2CCN1CC2 (stereo not given) [PRIMA-1MET] + CC(=O)Nc1cccc(-n2c(=O)n(C3CC3)c(=O)c3c(Nc4ccc(I)cc4F)n(C)c(=O)c(C)c32)c1 [Trametinib] (partner 0.02 µM)	0.905
COCC1(CO)C(=O)C2CCN1CC2 (stereo not given) [PRIMA-1MET] + Cc1nc(Nc2ncc(C(=O)Nc3c(C)cccc3Cl)s2)cc(N2CCN(CCO)CC2)n1 [Dasatinib] (partner 0.075 µM)	0.508

----------
The entries below come with measured relative viability values attached.
# System: A-427
# assay: relative viability (nuclei count vs DMSO), 5 days (fraction); higher = more cells survive
# condition-set: first compound 0.8 µM

compound	relative viability
COc1nc(C)cnc1NS(=O)(=O)c1cccnc1-c1ccc(-c2nnco2)cc1 [Zibotentan] + CS(=O)(=O)N1CCN(Cc2cc3nc(-c4cccc5[nH]ncc45)nc(N4CCOCC4)c3s2)CC1 [Pictilisib] (partner 1 µM)	0.68
COc1nc(C)cnc1NS(=O)(=O)c1cccnc1-c1ccc(-c2nnco2)cc1 [Zibotentan] + Cc1cc(Nc2cc(N3CCN(C)CC3)nc(Sc3ccc(NC(=O)C4CC4)cc3)n2)n[nH]1 [Tozasertib] (partner 0.1 µM)	0.25
COc1nc(C)cnc1NS(=O)(=O)c1cccnc1-c1ccc(-c2nnco2)cc1 [Zibotentan] + NC(=O)Nc1cc(-c2cccc(F)c2)sc1C(=O)N[C@H]1CCCNC1 [AZD7762] (partner 0.2 µM)	0.655

----------
# Tested on: NCI-H2342
# assay: relative viability (nuclei count vs DMSO), 5 days (fraction); higher = more cells survive
# condition-set: first compound 6.325 µM
relative viability for assorted compounds

compound	relative viability
COCC1(CO)C(=O)C2CCN1CC2 (centres undefined) [PRIMA-1MET] + O=C(c1cc(Cc2n[nH]c(=O)c3ccccc23)ccc1F)N1CCN(C(=O)C2CC2)CC1 [Olaparib] (partner 8 µM)	0.395
COCC1(CO)C(=O)C2CCN1CC2 (centres undefined) [PRIMA-1MET] + COc1cccc2cc(-c3nc([C@H]4CC[C@H](C(=O)O)CC4)n4ncnc(N)c34)[nH]c12 [OSI-027] (partner 0.5 µM)	0.595
COCC1(CO)C(=O)C2CCN1CC2 (centres undefined) [PRIMA-1MET] + CC(=O)Nc1cccc(-n2c(=O)n(C3CC3)c(=O)c3c(Nc4ccc(I)cc4F)n(C)c(=O)c(C)c32)c1 [Trametinib] (partner 0.02 µM)	0.755
COCC1(CO)C(=O)C2CCN1CC2 (centres undefined) [PRIMA-1MET] + Nc1ncn([C@H]2C[C@H](O)[C@@H](CO)O2)c(=O)n1 [Decitabine] (partner 2 µM)	0.658
